# tested target: Receptor-type tyrosine-protein kinase FLT3 (Homo sapiens) (UniProt P36888)
# Sequence (P36888 whole entry): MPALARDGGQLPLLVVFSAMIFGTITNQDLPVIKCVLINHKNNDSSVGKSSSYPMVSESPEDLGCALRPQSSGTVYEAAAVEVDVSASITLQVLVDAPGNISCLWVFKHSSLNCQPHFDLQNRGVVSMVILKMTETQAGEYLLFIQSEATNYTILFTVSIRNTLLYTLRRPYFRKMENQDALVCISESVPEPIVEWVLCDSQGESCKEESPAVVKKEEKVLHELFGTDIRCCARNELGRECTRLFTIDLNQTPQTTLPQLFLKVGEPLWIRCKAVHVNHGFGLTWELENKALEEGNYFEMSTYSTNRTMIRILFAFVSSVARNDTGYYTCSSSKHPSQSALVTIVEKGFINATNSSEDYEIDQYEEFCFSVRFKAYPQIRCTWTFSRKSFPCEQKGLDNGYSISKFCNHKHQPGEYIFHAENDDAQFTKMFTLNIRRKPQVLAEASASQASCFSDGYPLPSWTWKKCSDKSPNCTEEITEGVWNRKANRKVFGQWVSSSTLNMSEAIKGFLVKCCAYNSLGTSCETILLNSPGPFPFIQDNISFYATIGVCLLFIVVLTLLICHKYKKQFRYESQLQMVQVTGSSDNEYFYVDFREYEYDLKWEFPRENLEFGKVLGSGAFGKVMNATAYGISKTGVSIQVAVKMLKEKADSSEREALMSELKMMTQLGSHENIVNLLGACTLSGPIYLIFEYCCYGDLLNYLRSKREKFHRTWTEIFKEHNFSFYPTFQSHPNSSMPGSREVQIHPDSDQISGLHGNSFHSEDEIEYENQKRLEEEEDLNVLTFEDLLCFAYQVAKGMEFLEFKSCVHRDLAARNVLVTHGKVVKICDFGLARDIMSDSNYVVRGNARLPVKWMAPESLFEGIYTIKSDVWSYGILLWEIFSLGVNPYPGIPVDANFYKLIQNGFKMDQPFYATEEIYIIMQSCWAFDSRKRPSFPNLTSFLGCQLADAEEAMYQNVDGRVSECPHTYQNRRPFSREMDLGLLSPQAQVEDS
# test description: Inhibition of FLT3 (unknown origin) at 1 uM by KINOMEscanning assay relative to control; values are per cent of control
reported metric: residual activity (%)

(I) COc1cc(-c2c[nH]c3ncc(-c4cccc(N)c4)cc23)cc(OC)c1OC
(II) COc1ccc(-c2cnc3[nH]cc(-c4ccc(OC)c(OC)c4)c3c2)cc1OC
(III) COc1ccc(-c2c[nH]c3ncc(-c4ccc(C(=O)N5CCOCC5)c(N)c4)cc23)cc1OC
List the items above again, this time ordered by increasing residual activity. Please respond by ranking the labels in the order requested. II, III, I
(II: 2.2%, III: 7%, I: 25%)

(a) COc1ccc(-c2cnc3[nH]cc(-c4ccc(OC)c(OC)c4)c3c2)cc1N
(b) COc1ccc(-c2c[nH]c3ncc(-c4cc(OC)c(OC)c(OC)c4)cc23)cc1OC
When the recorded residual activity values are compared, which is smaller: that of a or that of b ? Return value: the label identifying the chosen record. b
(b: 1.6%, a: 18%)

---

# tested target: Cyclin-dependent kinase 9 (Homo sapiens) (UniProt P50750)
# Sequence (P50750 whole entry): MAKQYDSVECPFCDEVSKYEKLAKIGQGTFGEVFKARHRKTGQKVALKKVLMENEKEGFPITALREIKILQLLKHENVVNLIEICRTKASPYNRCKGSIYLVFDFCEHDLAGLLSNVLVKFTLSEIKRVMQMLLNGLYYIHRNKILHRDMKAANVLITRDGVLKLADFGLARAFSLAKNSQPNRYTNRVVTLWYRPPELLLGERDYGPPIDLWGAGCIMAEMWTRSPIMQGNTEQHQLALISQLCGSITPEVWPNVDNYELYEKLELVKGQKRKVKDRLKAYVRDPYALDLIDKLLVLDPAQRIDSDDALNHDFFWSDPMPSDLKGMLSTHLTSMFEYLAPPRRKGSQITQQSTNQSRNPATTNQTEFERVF
# test description: Inhibition of CDK9 (unknown origin) at 1 uM by KINOMEscanning assay relative to control; values are per cent of control
reported metric: residual activity (%)

* COc1ccc(-c2c[nH]c3ncc(-c4cc(OC)c(OC)c(OC)c4)cc23)cc1OC | 100
* COc1ccc(-c2c[nH]c3ncc(-c4ccc(C(=O)N5CCOCC5)c(N)c4)cc23)cc1OC | 100
* COc1ccc(-c2cnc3[nH]cc(-c4ccc(OC)c(OC)c4)c3c2)cc1OC | 100
* COc1cc(-c2c[nH]c3ncc(-c4cccc(N)c4)cc23)cc(OC)c1OC | 83
* COc1ccc(-c2cnc3[nH]cc(-c4ccc(OC)c(OC)c4)c3c2)cc1N | 100

---

# tested target: 5'-AMP-activated protein kinase catalytic subunit alpha-2 (Homo sapiens) (UniProt P54646)
# Sequence (P54646 whole entry, looked up): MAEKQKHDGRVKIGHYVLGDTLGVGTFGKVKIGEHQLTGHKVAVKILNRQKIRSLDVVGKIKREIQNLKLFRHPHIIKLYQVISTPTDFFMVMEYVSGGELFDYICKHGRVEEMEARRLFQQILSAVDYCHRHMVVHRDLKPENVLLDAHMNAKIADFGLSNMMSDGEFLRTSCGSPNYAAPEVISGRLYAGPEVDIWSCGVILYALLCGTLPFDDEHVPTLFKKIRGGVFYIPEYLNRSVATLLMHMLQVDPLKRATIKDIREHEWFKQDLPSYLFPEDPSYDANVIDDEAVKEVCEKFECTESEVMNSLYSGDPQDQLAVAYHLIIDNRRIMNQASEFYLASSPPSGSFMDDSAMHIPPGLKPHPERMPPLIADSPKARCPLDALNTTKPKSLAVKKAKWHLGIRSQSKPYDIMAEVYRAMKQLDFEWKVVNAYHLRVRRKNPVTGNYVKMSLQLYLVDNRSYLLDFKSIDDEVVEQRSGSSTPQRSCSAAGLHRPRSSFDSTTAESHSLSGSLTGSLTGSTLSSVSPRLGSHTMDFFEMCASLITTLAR
# test description: Inhibition of AMPKalpha 2 (unknown origin) at 1 uM by KINOMEscanning assay relative to control; values are per cent of control
reported metric: residual activity (%)

- COc1ccc(-c2c[nH]c3ncc(-c4ccc(C(=O)N5CCOCC5)c(N)c4)cc23)cc1OC: 82
- COc1ccc(-c2c[nH]c3ncc(-c4cc(OC)c(OC)c(OC)c4)cc23)cc1OC: 86
- COc1ccc(-c2cnc3[nH]cc(-c4ccc(OC)c(OC)c4)c3c2)cc1N: 87
- COc1cc(-c2c[nH]c3ncc(-c4cccc(N)c4)cc23)cc(OC)c1OC: 77
- COc1ccc(-c2cnc3[nH]cc(-c4ccc(OC)c(OC)c4)c3c2)cc1OC: 81

---

# tested target: High affinity nerve growth factor receptor (Homo sapiens)
# test description: Inhibition of TRKA (unknown origin) at 1 uM by KINOMEscanning assay relative to control; values are per cent of control
reported metric: residual activity (%)

* COc1ccc(-c2cnc3[nH]cc(-c4ccc(OC)c(OC)c4)c3c2)cc1N | 11

(P) COc1ccc(-c2c[nH]c3ncc(-c4ccc(C(=O)N5CCOCC5)c(N)c4)cc23)cc1OC
(Q) COc1cc(-c2c[nH]c3ncc(-c4cccc(N)c4)cc23)cc(OC)c1OC
(R) COc1ccc(-c2cnc3[nH]cc(-c4ccc(OC)c(OC)c4)c3c2)cc1OC
(S) COc1ccc(-c2c[nH]c3ncc(-c4cc(OC)c(OC)c(OC)c4)cc23)cc1OC
Please rank these molecules by residual activity in descending order. Please respond with the labels ordered as the question requires. Q, S, R, P
(Q: 83%, S: 46%, R: 26%, P: 11%)

FYI, the data here is from ChEMBL document CHEMBL3352338.
